EXPERIMENTAL_DETAILS: Light stability of printed patches (Weather-Ometer, xenon lamp)
Format: physicochemical
Design: key: A: excellent; B: good; C: satisfactory; D: unsatisfactory
CONDITION_DESCRIPTION: G: CANON Photo Paper Pro PR-101 (nanoporous); 20 megalux hours
TEST_READOUT: Light Stability (Class) on Recording Sheet G

The examples below pair each entry with its known result.
O=S(=O)([O-])c1cc(/N=N/c2ccc(Nc3nc(NCCO)nc(Nc4ccc(/N=N/c5cc(S(=O)(=O)[O-])c6cccc(S(=O)(=O)[O-])c6c5)cc4)n3)cc2)cc2c(S(=O)(=O)[O-])cccc12.[Na+].[Na+].[Na+].[Na+] [Dye No. I, reference compound] :: B
O=S(=O)([O-])CCNc1nc(Nc2ccc(N=Nc3cc(S(=O)(=O)[O-])c4cccc(S(=O)(=O)[O-])c4c3)cc2)nc(Nc2ccc(N=Nc3cc(S(=O)(=O)[O-])c4cccc(S(=O)(=O)[O-])c4c3)cc2)n1.[Na+].[Na+].[Na+].[Na+].[Na+] :: A
CN(CCS(=O)(=O)[O-])c1nc(Nc2ccc(N=Nc3ccc4cc(S(=O)(=O)[O-])cc(S(=O)(=O)[O-])c4c3)cc2)nc(Nc2ccc(N=Nc3ccc4cc(S(=O)(=O)[O-])cc(S(=O)(=O)[O-])c4c3)cc2)n1.[Na+].[Na+].[Na+].[Na+].[Na+] :: B
O=S(=O)([O-])c1cc(/N=N/c2ccc(Nc3nc(NCCCN4CCOCC4)nc(Nc4ccc(/N=N/c5cc(S(=O)(=O)[O-])c6cccc(S(=O)(=O)[O-])c6c5)cc4)n3)cc2)cc2c(S(=O)(=O)[O-])cccc12.[Na+].[Na+].[Na+].[Na+] [Dye No. IV, reference compound] :: B
O=S(=O)([O-])CCCSc1nc(Nc2ccc(N=Nc3ccc4cc(S(=O)(=O)[O-])cc(S(=O)(=O)[O-])c4c3)cc2)nc(Nc2ccc(N=Nc3ccc4cc(S(=O)(=O)[O-])cc(S(=O)(=O)[O-])c4c3)cc2)n1.[Na+].[Na+].[Na+].[Na+].[Na+] :: B

Any idea what its Light Stability (Class) on Recording Sheet G is? The compound is Cc1cc(Nc2nc(NCCO)nc(Nc3ccc(/N=N/c4cc(S(=O)(=O)[O-])c5cccc(S(=O)(=O)[O-])c5c4)c(C)c3)n2)ccc1/N=N/c1cc(S(=O)(=O)[O-])c2cccc(S(=O)(=O)[O-])c2c1.[Na+].[Na+].[Na+].[Na+] [Dye No. II, Direct Yellow 86, reference compound]
A

Same for O=S(=O)([O-])CCNc1nc(Nc2ccc(N=Nc3ccc4cc(S(=O)(=O)[O-])cc(S(=O)(=O)[O-])c4c3)cc2)nc(Nc2ccc(N=Nc3ccc4cc(S(=O)(=O)[O-])cc(S(=O)(=O)[O-])c4c3)cc2)n1.[Na+].[Na+].[Na+].[Na+].[Na+]
B

The reported measurements were obtained from patent US20080022467A1.
